assay remarks: Oral bioavailability in dog (1 mg/kg p.o. and 0.2 mg/kg i.v.)
Assay type: ADME, organism-based, Canis lupus familiaris
condition notes: in vivo
Given measured bioavailability, output Y if it is greater than or equal to 80% and N if not.

Look over these answered cases.
O=C(O)C[C@H](NC(=O)CCCCc1ccc2c(n1)NCCC2)c1ccc2c(c1)OCC2; Y
O=C(O)C[C@H](NC(=O)CCCCc1ccc2c(n1)NCCC2)c1cncnc1; N
O=C(O)C[C@H](NC(=O)CCCCc1ccc2c(n1)NCCC2)c1cnc2ccccc2c1; N
O=C(O)C[C@H](NC(=O)CCCCc1ccc2c(n1)NCCC2)c1ccc2nc(O)oc2c1; N

// switching to the query molecule
Has O=C(O)C[C@H](NC(=O)CCCCc1ccc2c(n1)NCCC2)c1ccc2c(c1)OCO2 a recorded bioavailability greater than or equal to 80%? Y
